Hey, just so you know, these numbers are from the supplement of paper PMC4466140.

Molecular target: AgBbc1
Experiment: SPOT peptide array binding signal intensity (averaged, normalized) (arbitrary units (background-subtracted, floor 0; scale differs between SH3 domains)); higher = stronger binding of the SH3 domain to the peptide
The threshold is inclusive: SPOT peptide array binding signal intensity of exactly 100 counts as satisfied; values below receive not satisfied.

Request: Check the entry LPPPPPPPPPPPLPQ : does SPOT peptide array binding signal intensity equal or exceed 100?
Response: not satisfied

Request: // query: NNFYRPLLRSVLVLL
Response: not satisfied

Request: // query: NENKKLPPAPTVFGL
Response: not satisfied

Request: // query: RRSKSLPTTPGIRSG
Response: satisfied

Request: // query: NNNKMRPHLPPLSSG
Response: not satisfied

Request: // query: EQEEIAPSLPSRNSI
Response: not satisfied

Request: // query: NLKKRPPTAPQRKIS
Response: satisfied

Request: // query: NLDRSKISLPDFDDE
Response: not satisfied
